target: SGK3 (Homo sapiens (Human)); test: KiNativ assay; format: binding; conditions: H929 live cell, read-out: inhibition (10 μM)
Sequence (Q96BR1 whole entry): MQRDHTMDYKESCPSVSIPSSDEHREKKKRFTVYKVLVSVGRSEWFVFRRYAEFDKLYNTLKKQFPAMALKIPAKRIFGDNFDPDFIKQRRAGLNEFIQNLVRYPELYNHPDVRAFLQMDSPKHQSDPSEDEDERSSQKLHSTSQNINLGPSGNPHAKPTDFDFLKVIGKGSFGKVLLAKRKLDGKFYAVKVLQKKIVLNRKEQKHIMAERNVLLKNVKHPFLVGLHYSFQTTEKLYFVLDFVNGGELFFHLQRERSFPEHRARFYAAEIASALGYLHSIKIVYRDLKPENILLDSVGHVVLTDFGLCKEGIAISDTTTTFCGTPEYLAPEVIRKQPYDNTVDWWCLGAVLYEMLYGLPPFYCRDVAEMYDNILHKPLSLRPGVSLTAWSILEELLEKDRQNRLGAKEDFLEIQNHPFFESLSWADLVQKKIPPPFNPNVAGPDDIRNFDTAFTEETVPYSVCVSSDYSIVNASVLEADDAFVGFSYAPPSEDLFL
property_name: inhibition at 10 µM (%)
The reply should be a number in %, with the unit left off.

Below, each entry is followed by its recorded inhibition at 10 µM result.
Nc1ncc(-c2cccc3ncsc23)cc1-c1ccc2c(c1)CCNC2=O	13.1
Nc1ncc(-c2ccc(NS(=O)(=O)C3CC3)cc2F)cc1-c1ccc2c(c1)CCNC2=O	26.3
CN(C1CC1)S(=O)(=O)c1ccc(-c2cnc(N)c(-c3ccc4c(c3)CCNC4=O)c2)c(F)c1	9.9

Looking up `COc1cc(NS(=O)(=O)C2CC2)ccc1-c1cnc(N)c(-c2ccc3c(c2)CCNC3=O)c1` , I see its inhibition at 10 µM listed as 11.2

For `Nc1ncc(-c2cccc([N+](=O)[O-])c2F)cc1-c1ccc2c(c1)CCNC2=O` the compound record lists inhibition at 10 µM as 51.6

Briefly, inhibition at 10 µM measured for `Nc1ncc(-c2ccc(NS(=O)(=O)C3CC3)cc2OC2CCCCC2)cc1-c1ccc2c(c1)CCNC2=O` : 13.5

Source of measurements: patent US10710978B2
